- Tested on: SK-BR-3
- protocolDescription: normalised response (% of control), CellTiter-Glo; higher = more viable cells (100 = DMSO, 0 = benzethonium chloride kill control)
- measurementParameters: incubation time: 72 h
Would you please tag the item y when its normalised response is 20% or above, and n when it is below?

compound	group
Cc1ccc(-c2cc(C(F)(F)F)nn2-c2ccc(S(N)(=O)=O)cc2)cc1 [Celecoxib] (10000 nM)	y
Nc1ncn([C@H]2C[C@H](O)[C@@H](CO)O2)c(=O)n1 [Decitabine] (10000 nM)	y
CCCS(=O)(=O)Nc1ccc(F)c(C(=O)c2c[nH]c3ncc(-c4ccc(Cl)cc4)cc23)c1F [Vemurafenib] (10000 nM)	y
COc1cc2c(NC3CCN(C(C)C)CC3)nc(C3CCCCC3)nc2cc1OCCCN1CCCC1 [UNC0638] (10000 nM)	n
Nc1nc(F)nc2c1ncn2[C@@H]1O[C@H](CO)[C@@H](O)[C@@H]1O [Fludarabine] (10000 nM)	y
COc1cc([C@@H]2c3cc4c(cc3[C@@H](O[C@@H]3O[C@@H]5CO[C@@H](c6cccs6)O[C@H]5[C@H](O)[C@H]3O)[C@H]3COC(=O)[C@H]23)OCO4)cc(OC)c1O [Teniposide] (10000 nM)	n
CC[C@H](C)C(=O)O[C@H]1C[C@H](O)C=C2C=C[C@H](C)[C@H](CC[C@@H](O)C[C@@H](O)CC(=O)O)[C@H]21 [Pravastatin] (10000 nM)	y
CCCCC(=O)OCC(=O)[C@]1(O)Cc2c(O)c3c(c(O)c2[C@@H](O[C@H]2C[C@H](NC(=O)C(F)(F)F)[C@H](O)[C@H](C)O2)C1)C(=O)c1c(OC)cccc1C3=O [Valrubicin] (5000 nM)	n

----------
- Tested on: BT-474
- protocolDescription: normalised response (% of control), CellTiter-Glo; higher = more viable cells (100 = DMSO, 0 = benzethonium chloride kill control)
- measurementParameters: incubation time: 72 h
endpoint: normalised response (%)

> print(dat)
                                   compound  assayvalue
1  Nc1ncn([C@H]2C[C@H](O)[C@@H](CO)O2)c(=O)n1 [Decitabine] (10000 nM)        87.4
2  O=C(O)C(=O)O.[NH-][C@@H]1CCCC[C@H]1[NH-].[Pt+2] [Oxaliplatin] (10000 nM)         100
3  O=C(O)C1(C(=O)O)CCC1.[NH2-].[NH2-].[Pt+2] [Carboplatin] (10000 nM)        98.8
4  COc1cc2c(NC3CCN(C(C)C)CC3)nc(C3CCCCC3)nc2cc1OCCCN1CCCC1 [UNC0638] (10000 nM)        2.59

----------
- Test system: MDA-MB-468
- protocolDescription: normalised viability (% of control), CellTiter-Blue; higher = more viable cells (about 100 = DMSO control)
- measurementParameters: 1000 nM; incubation time: 72 h
Please assign FALSE whenever normalised viability is at or above 60%, and TRUE whenever it is below.

> print(dat)
                                   molecule  group
1  COc1cc2nccc(Oc3ccc(NC(=O)Nc4cc(C)on4)c(Cl)c3)c2cc1OC  FALSE
2  O=C(/C=C/c1cccnc1)NCCCCC1CCN(C(=O)c2ccccc2)CC1   TRUE
3  CC[C@@H]1C(=O)N(C)c2cnc(Nc3ccc(C(=O)NC4CCN(C)CC4)cc3OC)nc2N1C1CCCC1   TRUE
4  CCCCC(=O)OCC(=O)[C@]1(O)Cc2c(O)c3c(c(O)c2[C@@H](O[C@H]2C[C@H](NC(=O)C(F)(F)F)[C@H](O)[C@H](C)O2)C1)C(=O)c1c(OC)cccc1C3=O   TRUE
5  CCN(CC)CCCC(C)Nc1c2ccc(Cl)cc2nc2ccc(OC)cc12 (configuration not stated)  FALSE
6  CC[C@H](Nc1ncnc2[nH]cnc12)c1nc2cccc(F)c2c(=O)n1-c1ccccc1  FALSE
7  C=CC(=O)Nc1cc2c(Nc3ccc(F)c(Cl)c3)ncnc2cc1OCCCN1CCOCC1   TRUE
